- experimentSummary: recombinant UMI read abundance after kanamycin selection (control-corrected) (log10(CPM+1)); higher = more efficient recombination; extreme values may be limits of the assay; sequences stand for … in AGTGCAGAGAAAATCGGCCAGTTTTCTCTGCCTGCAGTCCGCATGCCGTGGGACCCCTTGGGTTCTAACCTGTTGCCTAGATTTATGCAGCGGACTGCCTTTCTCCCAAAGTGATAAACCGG…AGGTTGGTTTCACT; site = the 11-nt donor;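 also: IS621 bridge recombinase in Escherichia coli cells against a fixed T5 target plasmid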
measuredAttribute: recombinant UMI read abundance (log10)

In [3]: df
Out[3]:
                             sequencestring  measuredvalue
0  CGTACGTCATGGACCGGTTTTCCCGGTAATCCGTATTTGTT (site CGTACGTCTAA)          0.728
1  CAACTCACATGGACCGGTTTTCCCGGTAATCCGTATTTGGG (site CAAATCACTCC)         0.0187
2  GACAAACCATGGACCGGTTTTCCCGGTAATCCGTATTTGTT (site GACAAACCTAG)              0
3  CAGAATCCATGGACCGGTTTTCCCGGTAATCCGTATTTGTT (site CCGAATCCTAA)              0
4  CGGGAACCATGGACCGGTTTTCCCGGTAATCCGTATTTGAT (site CGGGAATCTAT)              0

These measurements were taken from the supplement of paper PMC11208160.
